Cited source for all entries: patent US20220356176A1

target: KCNH2-3.1 (Kv11.1-3.1 containing potassium channel; hERG 3.1) (Homo sapiens, UniProt Q12809); experiment: KCNH2-3.1 inhibition ion (thallium) flux assay, FluxOR; details: U2OS cells transduced with hERG 3.1 Bacmam virus, 5 minutes compound incubation, read-out: Activity range (IC50)
Sequence (Q12809 1-1063 isoform Q12809-7): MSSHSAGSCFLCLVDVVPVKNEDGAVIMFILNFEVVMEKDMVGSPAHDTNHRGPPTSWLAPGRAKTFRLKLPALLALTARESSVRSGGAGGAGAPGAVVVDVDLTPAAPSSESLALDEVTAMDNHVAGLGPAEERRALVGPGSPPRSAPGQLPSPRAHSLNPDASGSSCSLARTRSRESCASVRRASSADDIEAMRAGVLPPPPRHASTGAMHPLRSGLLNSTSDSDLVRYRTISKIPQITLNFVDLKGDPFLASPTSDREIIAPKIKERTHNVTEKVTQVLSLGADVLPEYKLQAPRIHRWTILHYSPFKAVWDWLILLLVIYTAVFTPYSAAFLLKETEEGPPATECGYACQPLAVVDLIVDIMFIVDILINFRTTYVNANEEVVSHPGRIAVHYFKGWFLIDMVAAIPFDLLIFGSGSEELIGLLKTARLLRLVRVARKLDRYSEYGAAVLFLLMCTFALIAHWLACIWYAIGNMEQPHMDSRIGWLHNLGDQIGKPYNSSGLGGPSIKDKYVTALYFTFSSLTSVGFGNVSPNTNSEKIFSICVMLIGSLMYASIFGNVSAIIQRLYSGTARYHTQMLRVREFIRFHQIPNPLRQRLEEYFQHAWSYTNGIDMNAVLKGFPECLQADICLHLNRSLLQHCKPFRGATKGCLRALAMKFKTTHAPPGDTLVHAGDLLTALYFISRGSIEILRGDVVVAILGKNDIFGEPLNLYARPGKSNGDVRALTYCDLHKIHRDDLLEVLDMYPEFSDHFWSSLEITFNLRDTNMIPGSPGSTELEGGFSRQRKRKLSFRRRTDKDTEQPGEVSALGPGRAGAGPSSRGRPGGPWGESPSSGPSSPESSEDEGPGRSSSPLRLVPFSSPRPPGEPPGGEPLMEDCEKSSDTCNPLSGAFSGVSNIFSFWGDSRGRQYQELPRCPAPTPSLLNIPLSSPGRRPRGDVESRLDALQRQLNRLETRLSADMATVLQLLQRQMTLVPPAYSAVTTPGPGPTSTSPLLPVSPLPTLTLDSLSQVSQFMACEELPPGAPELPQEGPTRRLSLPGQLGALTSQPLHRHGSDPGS
pIC50: −log10 of the molar value.
measurement-label: pIC50

>  <compound>
O=C(CN1CCC(CO)CC1)Nc1ccc(N2CCCCCC2)cc1 [Example 10]

>  <measurement-label>
pIC50

>  <measured-value>
5.00 to 5.70

$$$$
>  <compound>
O=C(CNc1ccccc1)Nc1ccc(N2CCCCCC2)nc1 [Example 30]

>  <measurement-label>
pIC50

>  <measured-value>
5.70 to 6.30

$$$$
>  <compound>
CC(C)(O)C1CCN(CC(=O)Nc2ccc(N3CCCCCC3)cc2)CC1 [Example 12]

>  <measurement-label>
pIC50

>  <measured-value>
5.00 to 5.70

$$$$
>  <compound>
O=C(CN1C2CCC1CC2)Nc1ccc(N2CCCCCC2)nc1 [Example 26]

>  <measurement-label>
pIC50

>  <measured-value>
5.70 to 6.30

$$$$
>  <compound>
O=C(CN1CCCCC1c1ccc(Cl)cc1)Nc1ccc(N2CCCCCC2)cc1 (stereo not shown) [Example 16]

>  <measurement-label>
pIC50

>  <measured-value>
5.70 to 6.30

$$$$
>  <compound>
CC1CCN(c2ccc(NC(=O)CN3CC4CCC3CC4)cn2)CC1 [Example 3]

>  <measurement-label>
pIC50

>  <measured-value>
5.70 to 6.30

$$$$
>  <compound>
N#Cc1cccc(C2CCN(CC(=O)Nc3ccc(N4CCCCCC4)cc3)CC2)c1 [Example 18]

>  <measurement-label>
pIC50

>  <measured-value>
> 6.30

$$$$
